Value source: paper PMC5557986

molecular target: A/RI/5+/1957(H2N2) NA (N2) (Influenza A virus, UniProt Q194T1); assay: biochemical
Assign pIC50 to each entry below.
Reminder that pIC50 is minus the log10 of a molar concentration.

The compound `CC(=O)N[C@H]1[C@H]([C@H](O)[C@H](O)CO)O[C@@H](S(=O)(=O)O)C[C@@H]1O` showed pIC50 equal to 3.92

The compound `CC(=O)N[C@H]1[C@H]([C@H](O)[C@H](O)CO)O[C@H](S(=O)(=O)O)C[C@@H]1O` showed pIC50 equal to 5.05

The compound `CC(=O)N[C@@H]1C=C[C@H](S(=O)(=O)O)O[C@H]1[C@H](O)[C@H](O)CO` showed pIC50 equal to 3.50

###

molecular target: UniProtKB A0A0H2YT71
Sequence (A0A0H2YT71 27-1173 limits assumed): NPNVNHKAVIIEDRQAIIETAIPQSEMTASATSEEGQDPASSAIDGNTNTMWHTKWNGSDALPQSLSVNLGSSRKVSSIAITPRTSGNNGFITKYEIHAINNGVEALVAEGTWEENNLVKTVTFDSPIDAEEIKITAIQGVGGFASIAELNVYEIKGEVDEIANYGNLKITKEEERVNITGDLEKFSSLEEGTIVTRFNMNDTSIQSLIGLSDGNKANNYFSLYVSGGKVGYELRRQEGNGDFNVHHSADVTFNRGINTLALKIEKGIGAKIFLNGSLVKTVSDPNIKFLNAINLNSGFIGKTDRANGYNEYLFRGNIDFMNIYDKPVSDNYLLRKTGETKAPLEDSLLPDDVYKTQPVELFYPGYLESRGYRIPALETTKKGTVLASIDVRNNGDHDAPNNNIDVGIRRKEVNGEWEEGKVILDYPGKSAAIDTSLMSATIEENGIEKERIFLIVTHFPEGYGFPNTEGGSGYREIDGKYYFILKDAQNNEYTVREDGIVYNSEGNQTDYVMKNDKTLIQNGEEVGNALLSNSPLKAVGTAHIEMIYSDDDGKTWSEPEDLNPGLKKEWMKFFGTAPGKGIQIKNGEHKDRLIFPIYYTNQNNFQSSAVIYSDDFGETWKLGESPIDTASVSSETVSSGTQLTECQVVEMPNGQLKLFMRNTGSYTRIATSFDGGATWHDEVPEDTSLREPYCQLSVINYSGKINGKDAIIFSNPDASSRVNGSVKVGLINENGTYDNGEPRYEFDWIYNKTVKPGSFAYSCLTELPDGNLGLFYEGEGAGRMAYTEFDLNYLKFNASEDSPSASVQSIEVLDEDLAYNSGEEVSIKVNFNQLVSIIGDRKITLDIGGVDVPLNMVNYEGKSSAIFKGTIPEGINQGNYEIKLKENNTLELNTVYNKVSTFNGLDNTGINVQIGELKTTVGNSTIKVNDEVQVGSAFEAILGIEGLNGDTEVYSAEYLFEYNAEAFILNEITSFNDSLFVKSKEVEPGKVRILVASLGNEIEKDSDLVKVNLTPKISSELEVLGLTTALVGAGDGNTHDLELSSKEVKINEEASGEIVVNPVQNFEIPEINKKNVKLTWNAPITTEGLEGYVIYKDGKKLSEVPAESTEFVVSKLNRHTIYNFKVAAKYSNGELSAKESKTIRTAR
readout: pIC50
Reminder that pIC50 is minus the log10 of a molar concentration.

The compound `CC(=O)N[C@H]1[C@H]([C@H](O)[C@H](O)CO)O[C@H](S(=O)(=O)O)C[C@@H]1O` showed pIC50 equal to 4.43

###

molecular target: A/RI/5+/1957(H2N2) NA (N2) (Influenza A virus, UniProt Q194T1); assay: biochemical
readout: Ki
For clarity, give the value followed by its unit.

The compound `CC(=O)N[C@H]1[C@H]([C@H](O)[C@H](O)CO)O[C@H](S(=O)(=O)O)C[C@@H]1O` showed Ki equal to 2.47 µM

The compound `CC(=O)N[C@H]1[C@H]([C@H](O)[C@H](O)CO)O[C@@H](S(=O)(=O)O)C[C@@H]1O` showed Ki equal to 33.5 µM

The compound `CC(=O)N[C@@H]1C=C[C@H](S(=O)(=O)O)O[C@H]1[C@H](O)[C@H](O)CO` showed Ki equal to 88.1 µM
